System: Proto-oncogene tyrosine-protein kinase receptor Ret (Homo sapiens), P07949 [Y791F]
Sequence (P07949 whole entry Y791F): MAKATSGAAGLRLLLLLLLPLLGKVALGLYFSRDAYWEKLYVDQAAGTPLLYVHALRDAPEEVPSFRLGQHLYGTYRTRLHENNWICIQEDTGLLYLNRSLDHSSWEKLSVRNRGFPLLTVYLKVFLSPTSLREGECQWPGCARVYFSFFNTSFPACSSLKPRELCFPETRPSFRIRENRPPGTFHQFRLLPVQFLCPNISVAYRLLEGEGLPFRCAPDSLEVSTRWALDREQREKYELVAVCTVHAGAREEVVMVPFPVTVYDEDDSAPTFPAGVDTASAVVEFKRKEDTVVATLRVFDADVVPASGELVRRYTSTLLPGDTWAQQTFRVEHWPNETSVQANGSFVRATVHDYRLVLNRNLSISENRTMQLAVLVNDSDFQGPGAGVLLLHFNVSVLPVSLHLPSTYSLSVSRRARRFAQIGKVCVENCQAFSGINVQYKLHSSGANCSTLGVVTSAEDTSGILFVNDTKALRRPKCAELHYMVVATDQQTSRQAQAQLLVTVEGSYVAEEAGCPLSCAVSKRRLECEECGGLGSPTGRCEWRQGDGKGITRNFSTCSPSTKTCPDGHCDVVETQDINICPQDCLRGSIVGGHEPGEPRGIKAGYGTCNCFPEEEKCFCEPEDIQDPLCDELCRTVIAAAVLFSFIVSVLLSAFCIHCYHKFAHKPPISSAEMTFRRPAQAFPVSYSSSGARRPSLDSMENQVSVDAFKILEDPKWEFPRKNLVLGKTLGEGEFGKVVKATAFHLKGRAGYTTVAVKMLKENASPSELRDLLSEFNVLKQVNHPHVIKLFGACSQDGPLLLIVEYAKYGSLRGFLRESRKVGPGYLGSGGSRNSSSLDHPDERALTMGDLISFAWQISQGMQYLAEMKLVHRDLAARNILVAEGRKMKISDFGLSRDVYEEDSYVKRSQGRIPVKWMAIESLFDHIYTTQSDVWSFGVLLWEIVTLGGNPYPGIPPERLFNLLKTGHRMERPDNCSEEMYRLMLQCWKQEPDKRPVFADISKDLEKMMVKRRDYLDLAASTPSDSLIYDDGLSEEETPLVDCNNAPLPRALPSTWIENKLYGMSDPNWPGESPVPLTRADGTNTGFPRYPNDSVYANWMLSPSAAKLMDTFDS
STATED CONDITIONS: at 0.1 µM
REPORTED ENDPOINT: inhibition (%)

- CCn1c(-c2nonc2N)nc2cncc(C(=O)N3CCNCC3)c21: 5.85
- NS(=O)(=O)c1cccc(-c2ccc3c(NC(=O)C4CC4)n[nH]c3c2)c1: -2.8
- NC(=O)c1cccc(Nc2nccc(Nc3cccc4[nH]ncc34)n2)c1: 46
- CCCN1CCC(Oc2cc(Nc3nc(Nc4cccc(F)c4C(N)=O)c4cc[nH]c4n3)c(OC)cc2Cl)CC1: 4.36
- CCn1c(-c2nonc2N)nc2c(N3CCCC3)nccc21: 0
- COc1cc2c(cc1Nc1nc(N3CCc4ccccc43)c3cc[nH]c3n1)N(C(=O)CN(C)C)CC2: 1.4
- Nc1ncnc2occ(-c3ccc(NC(=O)Nc4cc(C(F)(F)F)cc(C(F)(F)F)c4)cc3)c12: 60.7
- CCCN1CCC=C(c2ccc(Nc3nc(Nc4ccccc4C(N)=O)c4cc[nH]c4n3)c(C)c2)C1: 9.36
- CCc1cccc(NC(=O)Nc2ccc(Oc3ccc4nc(NC(=O)OC)[nH]c4c3)cc2)c1: 53.5
- COc1cc2ncn(-c3cc(O[C@@H](C)c4ccccc4Cl)c(C(N)=O)s3)c2cc1OC: 32.5
- CC1=C(C(=O)Nc2ccc3[nH]ncc3c2)C(c2ccc(F)cc2)NC(=O)N1 (stereo not given): 8.37
- Cc1nnc(-c2ccc(C)c(-c3ccc(C(=O)Nc4cccc(C#N)c4)cc3)c2)o1: 4.58
- CCn1c(-c2nonc2N)nc2ccncc21: 1.52
- O=C1NC(=O)C(c2cccc(Cl)c2)=C1Nc1ccc(O)c(Cl)c1: 2.27
- [O-][S+]1CCN(Cc2ccc(-c3ccc4ncnc(Nc5ccc(OCc6ccccc6)c(F)c5)c4c3)o2)CC1: 1.94
- CC(C)=Cc1cccc2c1/C(=N/Nc1ccc(S(N)(=O)=O)cc1)C(=O)N2: 6.44
- CN1CCC(C(=O)Nc2n[nH]c3nnc(-c4ccccc4)cc23)CC1: 3.08
- CCn1c(-c2nonc2N)nc2cncc(C(=O)N3CC[C@H](N)C3)c21: 4.17
- COc1cc(C=NNc2ncnc3c2cnn3-c2ccccc2)ccc1O: 36.3
- CS(=O)(=O)CCNCc1nc(-c2ccc3ncnc(Nc4ccc(F)c(Cl)c4)c3c2)cs1: 7.75
- Fc1cccc(COc2ccc(Nc3ncnc4cc(-c5ccc[nH]5)sc34)cc2Cl)c1: 7.54
- Nc1nc(-c2ccc3c(c2)C(=Cc2cc(Br)c(O)c(Br)c2)C(=O)N3)cs1: 3.97
- CC(=O)Nc1cccc(C#Cc2cncnc2Nc2ccc(OCc3cccc(F)c3)c(Cl)c2)n1: 0.37
- NC(=O)c1ccc(-c2nc(-c3ccccn3)c(-c3ccc4c(c3)OCO4)[nH]2)cc1: 6.95
- O=C1NC(=O)C(c2ccc(Cl)cc2)=C1Nc1ccc(Cl)c(C(=O)O)c1: 0.25
- COc1cc2ncn(-c3cc(OCc4ccccc4C(F)(F)F)c(C(N)=O)s3)c2cc1OC: 17.9
- O=C1NC(=O)C(N2CCc3ccccc32)=C1c1ccc(Cl)cc1: 11.4
- CS(=O)(=O)CCNCc1ccc(-c2ccc3ncnc(Nc4ccc(OCc5cccc(F)c5)c(C(F)(F)F)c4)c3c2)o1: 2.66
- CN(C)c1cc2c(Nc3ccc4nc(Cc5ccccc5)[nH]c4c3)ncnc2cn1: 6.91
- CS(=O)(=O)CCNCc1ccc(-c2ccc3ncnc(Nc4ccc(OCc5ccccc5)c(Cl)c4)c3c2)o1: 10.2
- COc1ccccc1Nc1ncc(-c2ccccc2)o1: 9.37
- NS(=O)(=O)c1ccc(N/N=C2\C(=O)Nc3ccc(C(=O)NCCc4c[nH]cn4)cc32)cc1: 22.8
- O=C1Nc2ccc(C(=O)c3ccco3)cc2C1=Cc1cc(Cl)c(O)c(Cl)c1: 16
- CS(=O)(=O)Nc1ccc(N/C=C2\C(=O)Nc3ccccc32)cc1: 8.53
- COc1cc2ncn(-c3cc(OCc4ccccc4Cl)c(C(N)=O)s3)c2cc1OC: 20.7

* * *

SYSTEM: Tyrosine-protein kinase ABL1 (Homo sapiens) (UniProt P00519);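 also: reported values are mean percent inhibition of ABL1 kinase activity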
Sequence (P00519 whole entry): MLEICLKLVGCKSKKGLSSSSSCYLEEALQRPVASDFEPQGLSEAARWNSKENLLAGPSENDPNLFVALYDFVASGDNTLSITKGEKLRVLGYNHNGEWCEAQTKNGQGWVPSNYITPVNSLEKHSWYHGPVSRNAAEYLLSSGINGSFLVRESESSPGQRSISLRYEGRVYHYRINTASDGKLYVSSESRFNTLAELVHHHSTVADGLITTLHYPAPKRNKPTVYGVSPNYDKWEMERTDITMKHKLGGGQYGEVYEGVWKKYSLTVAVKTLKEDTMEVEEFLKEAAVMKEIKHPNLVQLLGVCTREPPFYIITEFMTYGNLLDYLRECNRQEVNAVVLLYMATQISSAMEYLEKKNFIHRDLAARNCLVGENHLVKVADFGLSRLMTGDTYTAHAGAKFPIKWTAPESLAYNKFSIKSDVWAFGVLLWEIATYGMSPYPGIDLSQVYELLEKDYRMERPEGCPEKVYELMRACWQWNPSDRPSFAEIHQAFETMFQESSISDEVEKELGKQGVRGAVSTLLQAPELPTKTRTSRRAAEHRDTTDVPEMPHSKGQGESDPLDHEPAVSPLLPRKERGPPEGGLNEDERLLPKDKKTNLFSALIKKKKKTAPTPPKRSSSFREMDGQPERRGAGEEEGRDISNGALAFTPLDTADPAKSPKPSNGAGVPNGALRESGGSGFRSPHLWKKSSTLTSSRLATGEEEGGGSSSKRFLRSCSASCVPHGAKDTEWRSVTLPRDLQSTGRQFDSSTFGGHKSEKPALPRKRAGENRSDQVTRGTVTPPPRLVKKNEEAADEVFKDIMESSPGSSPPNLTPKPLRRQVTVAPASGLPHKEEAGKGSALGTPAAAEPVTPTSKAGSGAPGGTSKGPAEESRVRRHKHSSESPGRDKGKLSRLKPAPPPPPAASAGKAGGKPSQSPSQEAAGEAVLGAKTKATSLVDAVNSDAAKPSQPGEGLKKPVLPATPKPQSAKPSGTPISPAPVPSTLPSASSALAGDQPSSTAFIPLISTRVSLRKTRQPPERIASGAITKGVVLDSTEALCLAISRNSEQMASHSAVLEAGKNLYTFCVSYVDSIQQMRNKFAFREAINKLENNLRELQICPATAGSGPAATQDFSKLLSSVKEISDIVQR
STATED CONDITIONS: at 1 µM
REPORTED ENDPOINT: inhibition

- COc1ccccc1Nc1ncc(-c2ccccc2)o1: 14.1%
- CCN1CCC(CC(=O)Nc2n[nH]c3nc(-c4cccs4)c(Br)cc23)CC1: 7.83%
- CS(=O)(=O)CCNCc1ccc(-c2ccc3ncnc(Nc4ccc(OCc5cccc(F)c5)c(C(F)(F)F)c4)c3c2)o1: 2.75%
- CCn1c(-c2nonc2N)nc2c(N3CCCC3)nccc21: 0.66%
- [O-][S+]1CCN(Cc2ccc(-c3ccc4ncnc(Nc5ccc(OCc6ccccc6)c(F)c5)c4c3)o2)CC1: 5.78%
- CC1=C(C(=O)Nc2ccc3[nH]ncc3c2)C(c2ccc(Cl)c(Cl)c2)CC(=O)N1 (stereo not given): 7.38%
- N#Cc1c(NC(=O)c2cccc3ccccc23)sc2c1CCCC2: 9.14%
- Nc1ncnc2occ(-c3ccc(NC(=O)Nc4cccc(C(F)(F)F)c4)cc3)c12: 55.8%
- COc1ccc(COc2ccc(Cc3cnc(N)nc3N)cc2OC)cc1: 7.34%
- O=C(Nc1n[nH]c2nc(-c3ccco3)c(Br)cc12)C1CC1: 24.1%

* * *

SYSTEM: Cyclin-dependent kinase 2 (Homo sapiens);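 also: mean inhibition of CDK2 bound to cyclin A, from the GSK PKIS kinase inhibitor set screen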
STATED CONDITIONS: at 0.1 µM
Quick reference: inhibition of the listed items.
REPORTED ENDPOINT: inhibition (%)

* Cc1ccc(C(=O)NC2CCCCC2)cc1-c1ccc(C(=O)NCC2CC2)cc1 | 0.88
* COC(=O)Nc1nc2cc(Oc3cccc(NC(=O)Nc4cc(C(F)(F)F)ccc4F)c3)ccc2[nH]1 | 0.37
* CC1=C(C(=O)Nc2ccc3[nH]ncc3c2)C(c2ccc(F)cc2)NC(=O)N1 (stereo not given) | 3.84
* Cn1cc(C=C2C(=O)Nc3cccnc32)c2ccccc21 | 2.66
* Nc1ncnc2occ(-c3ccc(NC(=O)Nc4cccc(C(F)(F)F)c4)cc3)c12 | 2.4
* COc1ccccc1Nc1ncc(-c2ccccc2)o1 | 2.24
* Cc1nn(C)c2cc(N(C)c3ccnc(Nc4cccc(S(N)(=O)=O)c4)n3)ccc12 | -0.61
* [O-][S+]1CCN(Cc2ccc(-c3ccc4ncnc(Nc5ccc(OCc6ccccc6)c(F)c5)c4c3)o2)CC1 | 1.07
* Fc1cccc(COc2ccc(Nc3ncnc4sc(-c5cccs5)cc34)cc2Cl)c1 | -0.17
* CCn1c(-c2nonc2N)nc2c(C#CC(C)(C)O)nc(OC[C@@H](N)c3ccccc3)cc21 | 0.3
* O=C(Nc1n[nH]c2nc(-c3ccco3)c(Br)cc12)C1CC1 | 3.87
* CNC(=O)c1cncc(/C=C/c2c(Cl)cccc2Cl)c1 | 0.92
* CCn1c(-c2nonc2N)nc2ccncc21 | 1.3
* COc1cc(C)c(NC(=O)CN(C)C)cc1Nc1nc(Nc2cccc(F)c2C(N)=O)c2cc[nH]c2n1 | 0.1
* CCc1cccc(NC(=O)Nc2ccc(Oc3ccc4nc(NC(=O)OC)[nH]c4c3)cc2)c1 | 0.71
* NCc1ccc(-c2nc(-c3ccc(Cl)c(O)c3)c(-c3ccncc3)[nH]2)cc1 | 1.79
* O=C1Nc2ccc(C(=O)c3ccco3)cc2C1=Cc1cc(Cl)c(O)c(Cl)c1 | 2.59
* CCCN1CCC(Oc2cc(Nc3nc(Nc4cccc(F)c4C(N)=O)c4cc[nH]c4n3)c(OC)cc2Cl)CC1 | 1.48
* CS(=O)(=O)CCNCc1nc(-c2ccc3ncnc(Nc4ccc(F)c(Cl)c4)c3c2)cs1 | 0.75
* CC1=C(C(=O)Nc2ccc3[nH]ncc3c2)C(c2ccc3ccccc3c2)CC(=O)N1 (stereo not given) | 2.98

* * *

Quick reference: inhibition of the listed items.
SYSTEM: Casein kinase II subunit alpha (Homo sapiens) (UniProt P68400);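 also: reported value is the mean CK2 inhibition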
Sequence (P68400 whole entry, looked up): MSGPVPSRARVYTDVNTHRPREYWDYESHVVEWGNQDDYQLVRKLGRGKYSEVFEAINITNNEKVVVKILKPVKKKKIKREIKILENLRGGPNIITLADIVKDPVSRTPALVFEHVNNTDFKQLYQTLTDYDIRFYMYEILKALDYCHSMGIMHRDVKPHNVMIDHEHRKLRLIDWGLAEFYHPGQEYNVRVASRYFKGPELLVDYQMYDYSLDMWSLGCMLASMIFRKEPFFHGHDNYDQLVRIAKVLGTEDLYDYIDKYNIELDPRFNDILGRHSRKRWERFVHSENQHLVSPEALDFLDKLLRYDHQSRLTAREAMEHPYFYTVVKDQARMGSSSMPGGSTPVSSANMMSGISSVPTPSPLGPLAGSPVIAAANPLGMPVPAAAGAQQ
STATED CONDITIONS: at 1 µM
REPORTED ENDPOINT: inhibition (%)

- CS(=O)(=O)CCNCc1ccc(-c2ccc3ncnc(Nc4ccc(OCc5ccccc5)c(Cl)c4)c3c2)o1: 1.71
- [O-][S+]1CCN(Cc2ccc(-c3ccc4ncnc(Nc5ccc(OCc6ccccc6)c(F)c5)c4c3)o2)CC1: 1.56
- NCc1ccc(-c2nc(-c3ccc(Cl)c(O)c3)c(-c3ccncc3)[nH]2)cc1: 1.53
- COc1ccc(COc2ccc(Cc3cnc(N)nc3N)cc2OC)cc1: -8.59
- CC1=C(C(=O)Nc2ccc3[nH]ncc3c2)C(c2ccc(F)cc2)NC(=O)N1 (stereo not given): 0.86

* * *

Quick reference: inhibition of the listed items.
SYSTEM: Homeodomain-interacting protein kinase 4 (Homo sapiens) (UniProt Q8NE63);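 also: values are mean percent inhibition of HIPK4 from the GSK PKIS kinase screen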
Sequence (whole entry): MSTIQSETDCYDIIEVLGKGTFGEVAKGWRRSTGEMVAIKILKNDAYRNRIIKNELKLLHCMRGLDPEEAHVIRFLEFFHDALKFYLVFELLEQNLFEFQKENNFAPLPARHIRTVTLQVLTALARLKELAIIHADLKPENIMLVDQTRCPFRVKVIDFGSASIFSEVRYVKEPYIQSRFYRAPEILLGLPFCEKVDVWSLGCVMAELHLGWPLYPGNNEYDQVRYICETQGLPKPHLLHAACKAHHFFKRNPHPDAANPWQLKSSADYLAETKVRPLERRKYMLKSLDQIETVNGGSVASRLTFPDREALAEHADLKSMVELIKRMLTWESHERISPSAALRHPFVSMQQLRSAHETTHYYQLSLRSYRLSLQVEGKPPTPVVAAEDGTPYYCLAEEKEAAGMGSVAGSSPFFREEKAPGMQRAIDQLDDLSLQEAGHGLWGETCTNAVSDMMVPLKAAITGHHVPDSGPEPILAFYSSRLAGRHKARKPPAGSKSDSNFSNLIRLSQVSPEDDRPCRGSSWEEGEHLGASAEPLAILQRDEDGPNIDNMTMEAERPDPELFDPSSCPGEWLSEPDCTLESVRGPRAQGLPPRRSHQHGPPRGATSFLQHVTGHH
STATED CONDITIONS: at 1 µM
REPORTED ENDPOINT: inhibition (%)

* CN(C)c1cc2c(Nc3ccc4nc(Cc5ccccc5)[nH]c4c3)ncnc2cn1 | 4.06
* Cc1cccc(-c2n[nH]cc2-c2ccc3ncccc3n2)n1 | 0.37
* CS(=O)(=O)CCNCc1nc(-c2ccc3ncnc(Nc4ccc(F)c(Cl)c4)c3c2)cs1 | 18.8
* O=C(Nc1n[nH]c2nc(-c3ccco3)c(Br)cc12)C1CC1 | 2.1
